- SYSTEM_NAME: EP2 (Homo sapiens);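 also: functional calcium flux assay in stably transfected HEK293 cells expressing EP2 coupled via a promiscuous G protein, clytin luminescence read as area under the curve, 30 min compound preincubation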
- METHOD: cell-based
Please provide measured IC50 for the entries that follow.

Prompt: Report measured IC50; entry is CC(c1ccc(-c2ccccc2)cc1)n1ncc2c(Cl)ccc(C(=O)NC3CC4(C3)CC(C(=O)O)C4)c21 (racemic) [Example 121]
Completion: < 25 nM

Prompt: Report measured IC50; entry is COc1cccc(-c2ccc(Cn3ccc4c(F)ccc(C(=O)NC5CC6(C5)CC(C(=O)O)C6)c43)cc2)c1 (racemic)
Completion: < 25 nM

Prompt: Report measured IC50; entry is COc1cc(-c2ccc(Cn3ncc4cc(Cl)cc(C(=O)NC5CC6(C5)CC(C(=O)O)C6)c43)cc2)ccn1 (stereo not drawn)
Completion: < 25 nM

====

- SYSTEM_NAME: EP4 (Homo sapiens)
- METHOD: Functional calcium flux assay, EP4
- CONDITION_NOTES: stably transfected HEK293 cells; PGE2 10 nM; read-out: EP4 Ca2+-flux assay IC50
Please provide measured IC50 for the entries that follow.

Prompt: Provide IC50, recorded with EP4 (Homo sapiens), of O=C(NC1CC2(C1)CC(C(=O)O)C2)c1ccc(F)c2ccn(Cc3ccc(OC(F)(F)F)cc3)c12 (stereo not shown) [Example 8]
Completion: < 1 nM

Prompt: Provide IC50, recorded with EP4 (Homo sapiens), of CN(C)c1cc(-c2ccc(Cn3ccc4c(F)ccc(C(=O)NC5CC6(C5)CC(C(=O)O)C6)c43)cc2)ccn1 (stereo not shown)
Completion: < 1 nM

Prompt: Provide IC50, recorded with EP4 (Homo sapiens), of COc1cc(-c2ccc(Cn3ccc4c(F)ccc(C(=O)NC5CC6(CC(CC(=O)O)C6)C5)c43)cc2)ccn1 (stereo not shown)
Completion: < 1 nM

Prompt: Provide IC50, recorded with EP4 (Homo sapiens), of COc1cc(C#N)cc(-c2ccc(C(C)n3ncc4cccc(C(=O)NC5CC6(C5)CC(C(=O)O)C6)c43)cc2)c1 (single isomer, unassigned) [Example 126]
Completion: < 1 nM

====

READOUT_NAME: IC50

Prompt: Provide IC50, recorded with EP2 (Homo sapiens, UniProt P43116), of O=C(O)CC1CC2(C1)CC(NC(=O)c1cc(Cl)c(F)c3cnn(Cc4ccc(-c5ccccc5)cc4)c13)C2 (stereo not shown) [Example 170]
Sequence (P43116 whole entry): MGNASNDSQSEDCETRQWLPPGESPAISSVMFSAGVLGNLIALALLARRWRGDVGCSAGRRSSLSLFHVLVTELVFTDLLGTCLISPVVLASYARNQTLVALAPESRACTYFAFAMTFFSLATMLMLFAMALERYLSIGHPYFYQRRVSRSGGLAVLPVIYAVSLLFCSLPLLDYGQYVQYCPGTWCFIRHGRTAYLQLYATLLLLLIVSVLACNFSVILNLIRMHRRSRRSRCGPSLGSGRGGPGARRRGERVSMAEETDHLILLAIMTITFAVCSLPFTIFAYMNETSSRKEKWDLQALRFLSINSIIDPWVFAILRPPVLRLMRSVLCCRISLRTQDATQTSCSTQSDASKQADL
Completion: < 25 nM

Prompt: Provide IC50, recorded with EP2 (Homo sapiens, UniProt P43116), of CCOc1nccc(-c2ccc(Cn3ncc4c(Cl)ccc(C(=O)NC5CC6(C5)CC(C(=O)O)C6)c43)cc2)n1 (stereo not shown) [Example 84]
Completion: < 25 nM

Prompt: Provide IC50, recorded with EP2 (Homo sapiens, UniProt P43116), of COc1cc(C#N)cc(-c2ccc(C(C)n3ncc4cccc(C(=O)NC5CC6(C5)CC(C(=O)O)C6)c43)cc2)c1 (racemic) [Example 114]
Completion: 57 nM

Prompt: Provide IC50, recorded with EP2 (Homo sapiens, UniProt P43116), of COc1cc(C(=O)NC2CC3(CC(CC(=O)O)C3)C2)c2c(cnn2Cc2ccc(-c3ccccc3)cc2)c1 (stereo not shown) [Example 164]
Completion: < 25 nM

====

- SYSTEM_NAME: EP4 (Homo sapiens, UniProt P35408)
- Sequence (P35408 whole entry): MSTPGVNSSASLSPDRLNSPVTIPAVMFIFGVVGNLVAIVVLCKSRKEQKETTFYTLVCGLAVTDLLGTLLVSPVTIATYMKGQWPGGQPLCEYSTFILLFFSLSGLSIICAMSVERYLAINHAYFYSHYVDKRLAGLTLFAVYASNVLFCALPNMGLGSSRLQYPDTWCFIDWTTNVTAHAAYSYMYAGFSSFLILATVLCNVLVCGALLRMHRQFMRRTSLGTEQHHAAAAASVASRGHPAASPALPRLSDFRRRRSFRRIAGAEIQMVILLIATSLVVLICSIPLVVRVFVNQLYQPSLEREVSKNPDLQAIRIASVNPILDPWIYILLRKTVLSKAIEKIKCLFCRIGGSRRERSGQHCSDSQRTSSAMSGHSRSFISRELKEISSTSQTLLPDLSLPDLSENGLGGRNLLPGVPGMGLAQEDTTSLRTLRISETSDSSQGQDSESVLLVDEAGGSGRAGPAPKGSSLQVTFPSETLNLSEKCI
- METHOD: Functional calcium flux assay, EP4
- CONDITION_NOTES: stably transfected HEK293 cells; PGE2 10 nM; read-out: EP4 Ca2+-flux assay IC50
READOUT_NAME: IC50

Prompt: Report measured IC50; entry is COc1ccc2cc(-c3ccc(Cn4ncc5c(Cl)ccc(C(=O)NC6CC7(CC(CC(=O)O)C7)C6)c54)cc3)ccc2n1 (stereo not drawn) [Example 146]
Completion: < 1 nM

Prompt: Report measured IC50; entry is O=C(NC1CC2(C1)CC(C(=O)O)C2)c1ccc(F)c2ccn(Cc3ccc(-c4cccc(OC5COC5)c4)cc3)c12 (stereo not drawn) [Example 57]
Completion: < 1 nM

Prompt: Report measured IC50; entry is [2H]C([2H])([2H])C([2H])(c1ccc(-c2ccccc2)cc1)n1ncc2cccc(C(=O)NC3CC4(C3)CC(C(=O)O)C4)c21 (single isomer, unassigned) [Example 169]
Completion: 1.5 nM
